# experimental.system: T1, EBOV Mayinga strain cleaved GP ectodomain (Ebola virus, Mayinga strain, UniProt Q05320 33-650)
# T1 chain: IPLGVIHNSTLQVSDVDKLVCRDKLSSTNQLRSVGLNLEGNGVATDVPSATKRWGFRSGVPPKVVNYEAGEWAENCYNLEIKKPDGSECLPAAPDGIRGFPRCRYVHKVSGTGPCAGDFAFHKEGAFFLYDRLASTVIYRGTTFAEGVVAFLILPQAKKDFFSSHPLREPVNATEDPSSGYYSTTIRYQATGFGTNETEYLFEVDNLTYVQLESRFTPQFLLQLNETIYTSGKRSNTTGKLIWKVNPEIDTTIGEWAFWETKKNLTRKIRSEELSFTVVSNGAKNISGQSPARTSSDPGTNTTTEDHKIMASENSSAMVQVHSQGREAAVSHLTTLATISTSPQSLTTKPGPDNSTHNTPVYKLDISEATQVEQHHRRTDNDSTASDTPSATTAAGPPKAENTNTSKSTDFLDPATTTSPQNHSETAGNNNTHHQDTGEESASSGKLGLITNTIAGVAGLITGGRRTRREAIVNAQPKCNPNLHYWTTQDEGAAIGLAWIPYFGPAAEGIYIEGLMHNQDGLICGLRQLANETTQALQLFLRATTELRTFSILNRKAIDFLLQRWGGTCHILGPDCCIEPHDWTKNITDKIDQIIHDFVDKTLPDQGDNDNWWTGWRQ
# run.description: ELISA
measurement.kind: EC50 (µg/mL)
Respond with the bare value in µg/mL.

Q: So what's the measured EC50 for this one? MR111 human monoclonal antibody (antibody, V domains shown) V domain 1: QVQLQESGPGLVKPSETLSLTCTVSGDSINNYYWSWIRQPPGKGLEWIGYIYYSNTNYNPSLKSRVTISVDTSKNQFSLRLSSVTAADTAVYYCARSPLFWFGEFFSSPDHFDFWGQGTL V domain 2: QSALTQPASVSGSPGQSITISCTGTSSDVGSYDLVSWYQQHPGKAPKLMLYEGTKRPSGVSNRFSGSKSGNTASLTISGLQAEDEADYYCCSYAGGSTLVFGGGTQVTVL
Ans: 21.5
